Please respond with reported relative viability for every item in the list.
system: EKVX; test: relative viability (nuclei count vs DMSO), 5 days (fraction); higher = more cells survive; conditions: first compound 0.02 µM
Format: numeric value only, no unit, no commentary.

Exercise: Field request: relative viability | item: CC(=O)O[C@@]12CO[C@@H]1C[C@H](O)[C@@]1(C)C(=O)[C@H](O)C3=C(C)[C@@H](OC(=O)[C@H](O)[C@@H](NC(=O)OC(C)(C)C)c4ccccc4)C[C@@](O)([C@@H](OC(=O)c4ccccc4)[C@H]21)C3(C)C [Docetaxel] + COc1cc2c(Oc3ccc(NC(=O)C4(C(=O)Nc5ccc(F)cc5)CC4)cc3F)ccnc2cc1OCCCN1CCOCC1 [Foretinib] (partner 0.25 µM)
Key: 0.13

Exercise: Bench note: what relative viability did CC(=O)O[C@@]12CO[C@@H]1C[C@H](O)[C@@]1(C)C(=O)[C@H](O)C3=C(C)[C@@H](OC(=O)[C@H](O)[C@@H](NC(=O)OC(C)(C)C)c4ccccc4)C[C@@](O)([C@@H](OC(=O)c4ccccc4)[C@H]21)C3(C)C [Docetaxel] + N=C(N)NC(=N)NCCc1ccccc1 [Phenformin] (partner 250 µM) show?
Key: 0.137

Exercise: Given the molecule CC(=O)O[C@@]12CO[C@@H]1C[C@H](O)[C@@]1(C)C(=O)[C@H](O)C3=C(C)[C@@H](OC(=O)[C@H](O)[C@@H](NC(=O)OC(C)(C)C)c4ccccc4)C[C@@](O)([C@@H](OC(=O)c4ccccc4)[C@H]21)C3(C)C [Docetaxel] + NC(=O)Nc1cc(-c2cccc(F)c2)sc1C(=O)N[C@H]1CCCNC1 [AZD7762] (partner 0.2 µM) , what is its reported relative viability?
Key: 0.132

* * *

tested on: NCI-H1975; assay: relative viability (nuclei count vs DMSO), 5 days (fraction); higher = more cells survive; details: first compound 0.8 µM
Hi there, I'd appreciate the recorded relative viability for every entry that follows.
I only need the number, thanks.

Exercise: Consider the molecule O=c1[nH]c2ccccc2n1C1CCN(CCCC(c2ccc(F)cc2)c2ccc(F)cc2)CC1 [Pimozide] + CS(=O)(=O)CCNCc1ccc(-c2ccc3ncnc(Nc4ccc(OCc5cccc(F)c5)c(Cl)c4)c3c2)o1 [Lapatinib] (partner 2 µM) and give its measured relative viability.
Key: 0.945

Exercise: Could you tell me which relative viability is on file for Cc1cnc(-c2cnc(NCCNc3ccc(C#N)cn3)nc2-c2ccc(Cl)cc2Cl)[nH]1 + CC(=O)c1c(C)c2cnc(Nc3ccc(N4CCNCC4)cn3)nc2n(C2CCCC2)c1=O [Palbociclib] (partner 0.5 µM) ?
Key: 0.487

Exercise: Need relative viability of O=c1[nH]c2ccccc2n1C1CCN(CCCC(c2ccc(F)cc2)c2ccc(F)cc2)CC1 [Pimozide] + CS(=O)(=O)N1CCN(Cc2cc3nc(-c4cccc5[nH]ncc45)nc(N4CCOCC4)c3s2)CC1 [Pictilisib] (partner 1 µM) , thanks.
Key: 0.297

Exercise: Given O=c1[nH]c2ccccc2n1C1CCN(CCCC(c2ccc(F)cc2)c2ccc(F)cc2)CC1 [Pimozide] + CCNC(=O)c1noc(-c2cc(C(C)C)c(O)cc2O)c1-c1ccc(CN2CCOCC2)cc1 [Luminespib] (partner 0.01 µM) , state its recorded relative viability.
Key: 0.384

Exercise: So what's the measured relative viability for this one? O=c1[nH]c2ccccc2n1C1CCN(CCCC(c2ccc(F)cc2)c2ccc(F)cc2)CC1 [Pimozide] + CC(=O)c1c(C)c2cnc(Nc3ccc(N4CCNCC4)cn3)nc2n(C2CCCC2)c1=O [Palbociclib] (partner 0.5 µM)
Key: 0.619

Exercise: # lookup: relative viability of Cc1cnc(-c2cnc(NCCNc3ccc(C#N)cn3)nc2-c2ccc(Cl)cc2Cl)[nH]1 + Nc1ncn([C@H]2C[C@H](O)[C@@H](CO)O2)c(=O)n1 [Decitabine] (partner 2 µM)
Key: 0.409

Exercise: What does the data say about its relative viability? Entry: O=c1[nH]c2ccccc2n1C1CCN(CCCC(c2ccc(F)cc2)c2ccc(F)cc2)CC1 [Pimozide] + O=C(CCCCCCC(=O)Nc1ccccc1)NO [Vorinostat] (partner 1 µM)
Key: 0.672

Exercise: What value of relative viability has been reported for the following molecule? O=c1[nH]c2ccccc2n1C1CCN(CCCC(c2ccc(F)cc2)c2ccc(F)cc2)CC1 [Pimozide] + CC1(C)CCC(c2ccc(Cl)cc2)=C(CN2CCN(c3ccc(C(=O)NS(=O)(=O)c4ccc(N[C@H](CCN5CCOCC5)CSc5ccccc5)c(S(=O)(=O)C(F)(F)F)c4)cc3)CC2)C1 [Navitoclax] (partner 0.5 µM)
Key: 1.08

Exercise: Could you share which relative viability value was measured for Cc1cnc(-c2cnc(NCCNc3ccc(C#N)cn3)nc2-c2ccc(Cl)cc2Cl)[nH]1 + COc1cc2c(Oc3ccc(NC(=O)C4(C(=O)Nc5ccc(F)cc5)CC4)cc3F)ccnc2cc1OCCCN1CCOCC1 [Foretinib] (partner 0.25 µM) ?
Key: 0.771

* * *

system: NCI-H2405; experiment: relative viability (nuclei count vs DMSO), 5 days (fraction); higher = more cells survive; conditions: first compound 0.006325 µM
parameter: relative viability
Format: numeric value only, no unit, no commentary.

Exercise: If you can, please state the reported relative viability value of CC(=O)O[C@@]12CO[C@@H]1C[C@H](O)[C@@]1(C)C(=O)[C@H](O)C3=C(C)[C@@H](OC(=O)[C@H](O)[C@@H](NC(=O)OC(C)(C)C)c4ccccc4)C[C@@](O)([C@@H](OC(=O)c4ccccc4)[C@H]21)C3(C)C [Docetaxel] + CS(=O)(=O)N1CCN(Cc2cc3nc(-c4cccc5[nH]ncc45)nc(N4CCOCC4)c3s2)CC1 [Pictilisib] (partner 1 µM) .
Key: 0.272

* * *

tested on: HCC-78; experiment: relative viability (nuclei count vs DMSO), 5 days (fraction); higher = more cells survive; settings: first compound 1.265 µM
For each record, check the reported relative viability: if it is below 0.4 write Criterion met, else write Criterion not met.

Exercise: In plain terms, does Cc1sc2c(c1C)C(c1ccc(Cl)cc1)=N[C@@H](CC(=O)OC(C)(C)C)c1nnc(C)n1-2 [JQ1] + C[C@]1(O)C[C@@H](c2nc(-c3ccc4ccc(-c5ccccc5)nc4c3)c3c(N)nccn32)C1 [Linsitinib] (partner 1 µM) come in under 0.4 for relative viability?
Key: Criterion met

Exercise: For this compound, is relative viability lower than 0.4? Cc1sc2c(c1C)C(c1ccc(Cl)cc1)=N[C@@H](CC(=O)OC(C)(C)C)c1nnc(C)n1-2 [JQ1] + CC(=O)c1c(C)c2cnc(Nc3ccc(N4CCNCC4)cn3)nc2n(C2CCCC2)c1=O [Palbociclib] (partner 0.5 µM)
Key: Criterion not met

Exercise: Report whether reported relative viability is lower than 0.4 (strictly) for Cc1sc2c(c1C)C(c1ccc(Cl)cc1)=N[C@@H](CC(=O)OC(C)(C)C)c1nnc(C)n1-2 [JQ1] + O=C(c1cc(Cc2n[nH]c(=O)c3ccccc23)ccc1F)N1CCN(C(=O)C2CC2)CC1 [Olaparib] (partner 8 µM)
Key: Criterion not met

Exercise: In plain terms, does Cc1sc2c(c1C)C(c1ccc(Cl)cc1)=N[C@@H](CC(=O)OC(C)(C)C)c1nnc(C)n1-2 [JQ1] + CC1(C)CCC(c2ccc(Cl)cc2)=C(CN2CCN(c3ccc(C(=O)NS(=O)(=O)c4ccc(N[C@H](CCN5CCOCC5)CSc5ccccc5)c(S(=O)(=O)C(F)(F)F)c4)cc3)CC2)C1 [Navitoclax] (partner 0.5 µM) come in under 0.4 for relative viability?
Key: Criterion met

Exercise: Dear reviewer, please state whether Cc1sc2c(c1C)C(c1ccc(Cl)cc1)=N[C@@H](CC(=O)OC(C)(C)C)c1nnc(C)n1-2 [JQ1] + Cc1nc(NC(=O)N2CCC[C@H]2C(N)=O)sc1-c1ccnc(C(C)(C)C(F)(F)F)c1 [Alpelisib] (partner 2 µM) has relative viability strictly beneath 0.4.
Key: Criterion met

* * *

tested on: COR-L 105; assay: relative viability (nuclei count vs DMSO), 5 days (fraction); higher = more cells survive; conditions: first compound 0.006325 µM
Can you tell me relative viability for the items I'm about to list?
Number only, please.

Exercise: GET /values?readout=relative viability&system=COR-L 105&item= CC(=O)O[C@@]12CO[C@@H]1C[C@H](O)[C@@]1(C)C(=O)[C@H](O)C3=C(C)[C@@H](OC(=O)[C@H](O)[C@@H](NC(=O)OC(C)(C)C)c4ccccc4)C[C@@](O)([C@@H](OC(=O)c4ccccc4)[C@H]21)C3(C)C [Docetaxel] + CC1(C)CCC(c2ccc(Cl)cc2)=C(CN2CCN(c3ccc(C(=O)NS(=O)(=O)c4ccc(N[C@H](CCN5CCOCC5)CSc5ccccc5)c(S(=O)(=O)C(F)(F)F)c4)cc3)CC2)C1 [Navitoclax] (partner 0.5 µM)
Key: 0.367

Exercise: Kindly state the measured relative viability obtained for CC(=O)O[C@@]12CO[C@@H]1C[C@H](O)[C@@]1(C)C(=O)[C@H](O)C3=C(C)[C@@H](OC(=O)[C@H](O)[C@@H](NC(=O)OC(C)(C)C)c4ccccc4)C[C@@](O)([C@@H](OC(=O)c4ccccc4)[C@H]21)C3(C)C [Docetaxel] + Cc1nc(NC(=O)N2CCC[C@H]2C(N)=O)sc1-c1ccnc(C(C)(C)C(F)(F)F)c1 [Alpelisib] (partner 2 µM) with COR-L 105.
Key: 0.522

Exercise: Please provide the recorded relative viability for CC(=O)O[C@@]12CO[C@@H]1C[C@H](O)[C@@]1(C)C(=O)[C@H](O)C3=C(C)[C@@H](OC(=O)[C@H](O)[C@@H](NC(=O)OC(C)(C)C)c4ccccc4)C[C@@](O)([C@@H](OC(=O)c4ccccc4)[C@H]21)C3(C)C [Docetaxel] + COc1cccc2cc(-c3nc([C@H]4CC[C@H](C(=O)O)CC4)n4ncnc(N)c34)[nH]c12 [OSI-027] (partner 0.5 µM) , tested on COR-L 105.
Key: 0.277
